test system: Aorta; assay: Vasodilatory activity in Wistar rat endothelium-denuded thoracic aortic ring assessed as inhibition of phenylephrine-induced contraction preincubated for […] in presence of 1 uM 1H-[1,2,4]oxadiazolo[4,3-a]quinoxalin-1-one; format: functional, tissue-based
pEC50: −log10 of the molar value.
experimental_endpoint: pEC50

• O=C(O)c1ccc(OCCCO[N+](=O)[O-])cc1 = 4.18
• O=C(O)c1ccc(SCC(CO[N+](=O)[O-])O[N+](=O)[O-])cc1 (centres undefined) = 4.25
• O=C(O)c1ccc(OCC(CO[N+](=O)[O-])O[N+](=O)[O-])cc1 (centres undefined) = 4.17
• O=C(O)c1ccc(SCCCO[N+](=O)[O-])cc1 = 4.28

Origin of values: ChEMBL document CHEMBL1151960
